system: S. enterica typhimurium tolC KO; test: growth AUC normalised to DMSO control (median) (fraction of control); higher = less growth inhibition, active = hit call of the paper; details: 20 µM
quantity name: growth AUC normalised to DMSO control
Reply briefly: the number, and no unit.

compound="CN(C)CCOC(c1ccccc1)c1ccccc1.Cn1c(=O)c2[nH]c(Cl)nc2n(C)c1=O [Dimenhydrinate]" target="S. enterica typhimurium tolC KO" quantity_name="growth AUC normalised to DMSO control" quantitative_readout=0.983

The measured growth AUC normalised to DMSO control associated with COC(=O)Nc1nc2cc(C(=O)c3cccs3)ccc2[nH]1 [Nocodazole] reads 0.975

The measured growth AUC normalised to DMSO control associated with CNC[C@H](O)[C@@H](O)[C@H](O)[C@H](O)CO [Meglumine] reads 1

The measured growth AUC normalised to DMSO control associated with CC(=O)N(CC(O)CO)c1c(I)c(C(=O)NCC(O)CO)c(I)c(C(=O)NCC(O)CO)c1I (stereo not given) [Iohexol] reads 1.01

The measured growth AUC normalised to DMSO control associated with Cc1onc(-c2ccccc2)c1-c1ccc(S(N)(=O)=O)cc1 [Valdecoxib] reads 0.983

* * *

test system: Vibrio cholerae; assay: growth AUC normalised to DMSO control (fraction of control); higher = less growth inhibition, active = hit call of the paper; settings: 20 µM
Where a name gives a salt, the structure may show the parent alone.
quantity name: growth AUC normalised to DMSO control
Reply briefly: the number, and no unit.

Some entries whose results are on file:
molecule="O=C(OCC(O)CO)c1ccccc1Nc1ccnc2cc(Cl)ccc12 (stereo unspecified) [Glafenine hydrochloride]" target="Vibrio cholerae" quantitative_readout=0.88
molecule="CN(C)CCOC(c1ccccc1)c1ccccc1.Cn1c(=O)c2[nH]c(Cl)nc2n(C)c1=O [Dimenhydrinate]" target="Vibrio cholerae" quantitative_readout=0.933
molecule="CCC1=C(C)CN(C(=O)NCCc2ccc(S(=O)(=O)NC(=O)N[C@H]3CC[C@H](C)CC3)cc2)C1=O [Glimepiride]" target="Vibrio cholerae" quantitative_readout=1.02

The measured growth AUC normalised to DMSO control associated with CCCCOc1ccc(OCCCN2CCOCC2)cc1 [Pramoxine hydrochloride] reads 1

The measured growth AUC normalised to DMSO control associated with C[C@@H]1CCC[C@H](C)N1NC(=O)c1ccc(Cl)c(S(N)(=O)=O)c1 [Clopamide] reads 0.982

The measured growth AUC normalised to DMSO control associated with CC1(C)S[C@@H]2[C@H](NC(=O)[C@H](C(=O)O)c3ccsc3)C(=O)N2[C@H]1C(=O)O [Ticarcillin sodium] reads 0.116

* * *

test system: P. vulgatus WT; assay: growth AUC normalised to DMSO control (median) (fraction of control); higher = less growth inhibition, active = hit call of the paper; details: 20 µM
# output must be one of y (active), n (inactive)

molecule=CC(=O)Oc1ccc(C(=C2CCCCC2)c2ccc(OC(C)=O)cc2)cc1 assigned_label=n
molecule=Nc1nc(N)c2nc(-c3ccccc3)c(N)nc2n1 assigned_label=n
molecule=CC(C)/N=c1\cc2n(-c3ccc(Cl)cc3)c3ccccc3nc-2cc1Nc1ccc(Cl)cc1 assigned_label=y
molecule="Cc1cccc(Nc2ccncc2S(=O)(=O)NC(=O)NC(C)C)c1 [Torsemide]" assigned_label=n
molecule=C(=C\c1ccccc1)/CN1CCN(C(c2ccccc2)c2ccccc2)CC1 assigned_label=n

### Prompt Could you kindly confirm the outcome this assay logged for S=c1[nH]cnc2nc[nH]c12 ?
### Response n

### Prompt Could you kindly confirm the outcome this assay logged for C[C@H](CCC(=O)O)[C@H]1CC[C@H]2[C@@H]3CC[C@@H]4C[C@H](O)CC[C@]4(C)[C@H]3CC[C@]12C ?
### Response n

Hey, just so you know, these numbers are from the supplement of paper PMC12350171.
